Q values, listed per item
# Setup Conditions: GHI-M (GHI 5 mL/kg, i.v.), MI/R rats, plasma, n = 6
Give just the numeric value; mL/min/kg need not be written.

[[record]]
compound = "O=C(/C=C/c1ccc(O)c(O)c1)O[C@@H]1C[C@](O)(C(=O)O)C[C@@H](O)[C@H]1O"
result_units = "mL/min/kg"
observed_measurement = 119.8


The compound identified as O=c1c(O[C@@H]2O[C@H](CO)[C@@H](O)[C@H](O)[C@H]2O)c(-c2ccc(O)cc2)oc2cc(O)cc(O)c12 [Kaempferol-3-O-glucoside, kaempferol-3-O-glucoside] registered its Q at 79.4

The compound identified as C[C@@H]1O[C@@H](OC[C@H]2O[C@@H](Oc3c(-c4ccc(O)c(O)c4)oc4cc(O)cc(O)c4c3=O)[C@H](O)[C@@H](O)[C@@H]2O)[C@H](O)[C@H](O)[C@H]1O registered its Q at 83.63

The compound identified as O=c1c(O[C@@H]2O[C@H](CO)[C@H](O)[C@H](O)[C@H]2O)c(-c2ccc(O)c(O)c2)oc2cc(O)cc(O)c12 [Hyperoside, hyperoside] registered its Q at 76.2

The compound identified as O=C(O)/C=C/c1ccc(O)cc1 registered its Q at 115.3

* * *

# Setup Conditions: GHI-L (GHI […], i.v.), MI/R rats, plasma, n = 6
Readout Type: K10 (h⁻¹)
Give just the numeric value; h⁻¹ need not be written.

The compound identified as C[C@@H]1O[C@@H](OC[C@H]2O[C@@H](Oc3c(-c4ccc(O)c(O)c4)oc4cc(O)cc(O)c4c3=O)[C@H](O)[C@@H](O)[C@@H]2O)[C@H](O)[C@H](O)[C@H]1O registered its K10 at 10.125

The compound identified as O=c1c(O[C@@H]2O[C@H](CO)[C@@H](O)[C@H](O)[C@H]2O)c(-c2ccc(O)cc2)oc2cc(O)cc(O)c12 [Kaempferol-3-O-glucoside, kaempferol-3-O-glucoside] registered its K10 at 10.09

The compound identified as O=c1c(O[C@@H]2O[C@H](CO)[C@H](O)[C@H](O)[C@H]2O)c(-c2ccc(O)c(O)c2)oc2cc(O)cc(O)c12 [Hyperoside, hyperoside] registered its K10 at 11.259

* * *

# Setup Conditions: GHI-H (GHI 10 mL/kg, i.v.), MI/R rats, plasma, n = 6
Q values, listed per item
Give just the numeric value; L/h/kg need not be written.

The molecule identified as O=c1c(O[C@@H]2O[C@H](CO)[C@H](O)[C@H](O)[C@H]2O)c(-c2ccc(O)c(O)c2)oc2cc(O)cc(O)c12 [Hyperoside, hyperoside] registered its Q at 7.260

The molecule identified as C[C@@H]1O[C@@H](OC[C@H]2O[C@@H](Oc3c(-c4ccc(O)c(O)c4)oc4cc(O)cc(O)c4c3=O)[C@H](O)[C@@H](O)[C@@H]2O)[C@H](O)[C@H](O)[C@H]1O [Rutin, rutin] registered its Q at 6.706

The molecule identified as O=c1c(O[C@@H]2O[C@H](CO)[C@@H](O)[C@H](O)[C@H]2O)c(-c2ccc(O)cc2)oc2cc(O)cc(O)c12 [Kaempferol-3-O-glucoside, kaempferol-3-O-glucoside] registered its Q at 8.473
